system: MCF7 TP53 KO 5.6 pool; assay: Drug screening, resazurin, TP53 KO 5.6 pool; format: cell-based, Human; conditions: ten-day drug treatment, 156.25 nM to 10 μM, resazurin fluorescence
RESULT_TYPE: TP53 KO 5.6 pool (AUC)
Respond numerically, and do not add a unit to the figure.

Could you tell me which TP53 KO 5.6 pool (AUC) is on file for Nc1ncn([C@@H]2O[C@H](CO)[C@@H](O)[C@H]2O)c(=O)n1 ? 6.373

Could you tell me which TP53 KO 5.6 pool (AUC) is on file for Cc1c(C(=O)Nc2ccc(N3C[C@@H](C)O[C@@H](C)C3)nc2)cccc1-c1ccc(OC(F)(F)F)cc1 ? 7.491

Could you tell me which TP53 KO 5.6 pool (AUC) is on file for N.N.[Cl][Pt][Cl] [Cisplatin] ? 7.44

Could you tell me which TP53 KO 5.6 pool (AUC) is on file for COc1cc([C@@H]2c3cc4c(cc3[C@@H](O[C@@H]3O[C@@H]5CO[C@@H](c6cccs6)O[C@H]5[C@H](O)[C@H]3O)[C@H]3COC(=O)[C@H]23)OCO4)cc(OC)c1O [Teniposide] ? 1.041

Could you tell me which TP53 KO 5.6 pool (AUC) is on file for COc1cc2ncnc(Nc3ccc(F)c(Cl)c3)c2cc1OCCCN1CCOCC1 ? 8.242

###

system: MCF7 TP53 KO 5.6 pool; assay: Drug screening, resazurin, TP53 KO 5.6 pool; type: cell-based, Human; settings: ten-day drug treatment, 156.25 nM to 10 μM, resazurin fluorescence
RESULT_TYPE: TP53 KO 5.6 pool (AUC)

Could you tell me which TP53 KO 5.6 pool (AUC) is on file for CC(C)C[C@H](NC(=O)[C@H](CCc1ccccc1)NC(=O)CN1CCOCC1)C(=O)N[C@@H](Cc1ccccc1)C(=O)N[C@@H](CC(C)C)C(=O)[C@@]1(C)CO1 ? 0.6678

Could you tell me which TP53 KO 5.6 pool (AUC) is on file for COc1cc2nccc(Oc3ccc(NC(=O)C4(C(=O)Nc5ccc(F)cc5)CC4)cc3)c2cc1OC [Cabozantinib] ? 4.52

Could you tell me which TP53 KO 5.6 pool (AUC) is on file for O=C(c1ccc(OCCN2CCCCC2)cc1)c1c(-c2ccc(O)cc2)sc2cc(O)ccc12 ? 6.562

Could you tell me which TP53 KO 5.6 pool (AUC) is on file for NC(=O)NO [Hydroxyurea] ? 8.455

Could you tell me which TP53 KO 5.6 pool (AUC) is on file for CC(C)Cn1cnc2c(N)nc3ccccc3c21 ? 9.449

###

tested on: MCF7 TP53 KO 5.6 pool; test: Drug screening, resazurin, TP53 KO 5.6 pool; type: cell-based, Human; settings: ten-day drug treatment, 156.25 nM to 10 μM, resazurin fluorescence
RESULT_TYPE: TP53 KO 5.6 pool (AUC)
Respond numerically, and do not add a unit to the figure.

Could you tell me which TP53 KO 5.6 pool (AUC) is on file for C#CCC(Cc1cnc2nc(N)nc(N)c2n1)c1ccc(C(=O)N[C@@H](CCC(=O)O)C(=O)O)cc1 (some centres unmarked) [Pralatrexate] ? 2.86

Could you tell me which TP53 KO 5.6 pool (AUC) is on file for Cn1nnc2c(C(N)=O)ncn2c1=O [Temozolomide] ? 10.06

Could you tell me which TP53 KO 5.6 pool (AUC) is on file for Cc1nc(Nc2ncc(C(=O)Nc3c(C)cccc3Cl)s2)cc(N2CCN(CCO)CC2)n1 [Dasatinib] ? 4.43

Could you tell me which TP53 KO 5.6 pool (AUC) is on file for CC1=C(/C=C/C(C)=C/C=C/C(C)=C/C(=O)O)C(C)(C)CCC1 [Tretinoin] ? 7.997

Could you tell me which TP53 KO 5.6 pool (AUC) is on file for COc1cc2c(Nc3ccc(Br)cc3F)ncnc2cc1OCC1CCN(C)CC1 [Vandetanib] ? 3.022

###

system: MCF7 PR WT A8; assay: Drug treatment of single cell clone PR WT A8; type: cell-based, Human; settings: ten day drug treatment; further: unit not given here
RESULT_TYPE: area under the curve (AUC)
Respond numerically, and do not add a unit to the figure.

Could you tell me which area under the curve (AUC) is on file for CC(=O)c1c(C)c2cnc(Nc3ccc(N4CCNCC4)cn3)nc2n(C2CCCC2)c1=O [Palbociclib] ? 2.127

Could you tell me which area under the curve (AUC) is on file for O=c1[nH]cc(F)c(=O)[nH]1 [Fluorouracil] ? 2.126

Could you tell me which area under the curve (AUC) is on file for O=C1[O][Pt]2([NH][C@@H]3CCCC[C@H]3[NH]2)[O]C1=O [Oxaliplatin] ? 0.7779

Could you tell me which area under the curve (AUC) is on file for COc1ccc(C2=N[C@@H](c3ccc(Cl)cc3)[C@@H](c3ccc(Cl)cc3)N2C(=O)N2CCNC(=O)C2)c(OC(C)C)c1 [Nutlin3] ? 0.9589

###

Give TP53 KO 5.6 pool (AUC) for every item shown.
test system: MCF7 TP53 KO 5.6 pool; experiment: Drug screening, resazurin, TP53 KO 5.6 pool; type: cell-based, Human; details: ten-day drug treatment, 156.25 nM to 10 μM, resazurin fluorescence
Where a name gives a salt, the structure may show the parent alone. Starred links: 1 amine or outer side, 2 acyl side, 3 side chain; linkers in the order of their positions; H or OH if unused. Positions of bridges follow the written chain, without caps; N, C: chain ends. Non-standard residues stand in square brackets, D forms with d. Residues, ends and D or L forms follow the SMILES beside them. Chains are numbered I, II in the order given. Actinocin(9to1) = Cc1c2oc3c(C)ccc(C(=O)[*:1])c3nc-2c(C(=O)[*:2])c(N)c1=O; NMeV = CN[C@H](C(=O)O)C(C)C; Sar = CNCC(=O)O
Respond numerically, and do not add a unit to the figure.

Could you tell me which TP53 KO 5.6 pool (AUC) is on file for C/C(=C\c1csc(C)n1)[C@@H]1C[C@@H]2O[C@]2(C)CCC[C@H](C)[C@H](O)[C@@H](C)C(=O)C(C)(C)[C@@H](O)CC(=O)N1 [Ixabepilone] ? 1.473

Could you tell me which TP53 KO 5.6 pool (AUC) is on file for O=NN(CCCl)C(=O)NCCCl ? 9.965

Could you tell me which TP53 KO 5.6 pool (AUC) is on file for CC(C)(C#N)c1cc(Cn2cncn2)cc(C(C)(C)C#N)c1 ? 8.828

Could you tell me which TP53 KO 5.6 pool (AUC) is on file for Cc1c2oc3c(C)ccc(C(=O)N[C@@H]4C(=O)N[C@H](C(C)C)C(=O)N5CCC[C@H]5C(=O)N(C)CC(=O)N(C)[C@@H](C(C)C)C(=O)O[C@@H]4C)c3nc-2c(C(=O)N[C@@H]2C(=O)N[C@H](C(C)C)C(=O)N3CCC[C@H]3C(=O)N(C)CC(=O)N(C)[C@@H](C(C)C)C(=O)O[C@@H]2C)c(N)c1=O [Dactinomycin] (I: T[dV]P[Sar][NMeV] / II: T[dV]P[Sar][NMeV]; ester I:1-I:C, II:1-II:C; linker I:N-II:N via Actinocin(9to1)) ? 1.65

Could you tell me which TP53 KO 5.6 pool (AUC) is on file for CC[C@]1(O)C[C@H]2CN(CCc3c([nH]c4ccccc34)[C@@](C(=O)OC)(c3cc4c(cc3OC)N(C=O)[C@H]3[C@@](O)(C(=O)OC)[C@H](OC(C)=O)[C@]5(CC)C=CCN6CC[C@]43[C@@H]65)C2)C1 [Vincristine Sulfate] ? 1.54

Could you tell me which TP53 KO 5.6 pool (AUC) is on file for CC(=O)O[C@]1(C(C)=O)CC[C@H]2[C@@H]3C=C(C)C4=CC(=O)CC[C@]4(C)[C@H]3CC[C@@]21C [Megestrol Acetate] ? 9.555

Could you tell me which TP53 KO 5.6 pool (AUC) is on file for C[C@]12CC[C@H](O)CC1=CC[C@@H]1[C@@H]2CC[C@]2(C)C(c3cccnc3)=CC[C@@H]12 ? 9.254

Could you tell me which TP53 KO 5.6 pool (AUC) is on file for CC(=O)O[C@H]1C(=O)[C@@]2(C)[C@H]([C@H](OC(=O)c3ccccc3)[C@]3(O)C[C@H](OC(=O)[C@H](O)[C@@H](NC(=O)c4ccccc4)c4ccccc4)C(C)=C1C3(C)C)[C@]1(OC(C)=O)CO[C@@H]1C[C@@H]2O ? 1.432

Could you tell me which TP53 KO 5.6 pool (AUC) is on file for CS(=O)(=O)OCCCCOS(C)(=O)=O ? 8.834

Could you tell me which TP53 KO 5.6 pool (AUC) is on file for CO[C@@]12[C@H](COC(N)=O)C3=C(C(=O)C(C)=C(N)C3=O)N1C[C@@H]1N[C@@H]12 ? 0.912

Could you tell me which TP53 KO 5.6 pool (AUC) is on file for Nc1cccc2c1C(=O)N(C1CCC(=O)NC1=O)C2=O (stereo not shown) [Pomalidomide] ? 10.13

Could you tell me which TP53 KO 5.6 pool (AUC) is on file for C[C@@H](CN1CC(=O)NC(=O)C1)N1CC(=O)NC(=O)C1 ? 8.868

Could you tell me which TP53 KO 5.6 pool (AUC) is on file for Nc1nc(Cl)nc2c1ncn2[C@@H]1O[C@H](CO)[C@@H](O)[C@@H]1F ? 3.74

Could you tell me which TP53 KO 5.6 pool (AUC) is on file for COc1cc([C@@H]2c3cc4c(cc3[C@@H](O[C@@H]3O[C@@H]5CO[C@@H](C)O[C@H]5[C@H](O)[C@H]3O)[C@H]3COC(=O)[C@H]23)OCO4)cc(OC)c1O [Etoposide] ? 3.06

Could you tell me which TP53 KO 5.6 pool (AUC) is on file for CC[C@H](Nc1ncnc2[nH]cnc12)c1nc2cccc(F)c2c(=O)n1-c1ccccc1 ? 7.03

Could you tell me which TP53 KO 5.6 pool (AUC) is on file for Nc1ccn([C@@H]2O[C@H](CO)[C@@H](O)C2(F)F)c(=O)n1 [Gemcitabine Hydrochloride] ? 1.827

Could you tell me which TP53 KO 5.6 pool (AUC) is on file for CN(C)C/C=C/C(=O)Nc1cc2c(Nc3ccc(F)c(Cl)c3)ncnc2cc1O[C@H]1CCOC1 ? 2.139

Could you tell me which TP53 KO 5.6 pool (AUC) is on file for O=c1[nH]c(=O)n([C@H]2C[C@H](O)[C@@H](CO)O2)cc1F ? 1.997

Could you tell me which TP53 KO 5.6 pool (AUC) is on file for CC[C@]1(O)C[C@@H]2CN(CCc3c([nH]c4ccccc34)[C@@](C(=O)OC)(c3cc4c(cc3OC)N(C)[C@H]3[C@@](O)(C(=O)OC)[C@H](OC(C)=O)[C@]5(CC)C=CCN6CC[C@]43[C@@H]65)C2)C1 [Vinblastine Sulfate] ? 1.382

Could you tell me which TP53 KO 5.6 pool (AUC) is on file for CCCS(=O)(=O)Nc1ccc(F)c(C(=O)c2c[nH]c3ncc(-c4ccc(Cl)cc4)cc23)c1F ? 8.365

Could you tell me which TP53 KO 5.6 pool (AUC) is on file for CCCCC(=O)OCC(=O)[C@]1(O)Cc2c(O)c3c(c(O)c2[C@@H](O[C@H]2C[C@H](NC(=O)C(F)(F)F)[C@H](O)[C@H](C)O2)C1)C(=O)c1c(OC)cccc1C3=O ? 1.05

Could you tell me which TP53 KO 5.6 pool (AUC) is on file for COc1c2occc2cc2ccc(=O)oc12 ? 10.48

Could you tell me which TP53 KO 5.6 pool (AUC) is on file for CC(C)C[C@H](NC(=O)CNC(=O)c1cc(Cl)ccc1Cl)B(O)O ? 0.8766

Could you tell me which TP53 KO 5.6 pool (AUC) is on file for CN(N=O)C(=O)N[C@@H](C=O)[C@@H](O)[C@H](O)[C@H](O)CO ? 9.912

Could you tell me which TP53 KO 5.6 pool (AUC) is on file for C=CC(=O)Nc1cc(Nc2nccc(-c3cn(C)c4ccccc34)n2)c(OC)cc1N(C)CCN(C)C ? 4.044
